Listing: GI50 of selected compounds
# System: Malme-3M
# protocol.details: NCI tumour cell line growth inhibition, 48 h
Activity calls are given as the source filed them. Cut-off read from the data, not from the text of the source: active = GI50 up to about 1.1 µM and inactive = higher.

>>> meas_value("CN(C)Cc1cc(C(=O)/C=C/c2ccc(Cl)cc2)cc(CN(C)C)c1O")
"11.7 µM (inactive)"
>>> meas_value("CC[C@@]12CCCN3CC[C@]4(c5cccc(OC)c5N(C(C)=O)[C@@H]4CC1)[C@H]32 [ASPIDOSPERMINE]")
"> 100 µM (inactive)"
>>> meas_value("C=C1CCCC(C)(C)[C@H]1C/C=C1\\CCOC1=O")
"13.5 µM (inactive)"
>>> meas_value("CC1=C(C(=O)CC(=O)C(=O)Nc2ccc(C)c(C)c2)Sc2ccccc2N1")
"> 100 µM (inactive)"
>>> meas_value("COc1ccc2cc3[n+](cc2c1OC)CCc1cc(O)c(O)cc1-3")
"> 100 µM (inactive)"

Endpoint output: GI50 of O=C(O)CCC(C(=O)O)N1C(=O)c2ccccc2C1=O (stereo not drawn) . Value?
> 100 µM (inactive)

Again, but for Cc1ccc(-n2nc(C(OC3OC(CO)C(O)C(O)C3O)C(O)CO)c3nc4cc(C)c(C)cc4nc32)cc1 (stereo not drawn)
> 100 µM (inactive)

Again, but for NC(Cc1ccccc1)C(=O)OCN1C(=O)C2C3C=CC(C2C1=O)C1C(=O)N(COC(=O)C(N)Cc2ccccc2)C(=O)C31 (stereo not drawn)
17.2 µM (inactive)

Again, but for `N=C/N=C/C(=S)O[C@@H]1C(=O)N2CCC[C@@]23CCCC[C@@H]13`
> 12.5 µM (inactive)

Again, but for CC[C@H](C)[C@H]1NC(=O)[C@@H](NC(=O)[C@@H](CC(C)C)N(C)C(=O)C2CCCN2C(=O)[C@H](C)O)[C@@H](C)OC(=O)[C@H](Cc2ccc(OC)cc2)N(C)C(=O)[C@@H]2CCCN2C(=O)[C@H](CCCCNC(=O)OCc2ccccc2)NC(=O)[C@H](C)C(=O)[C@H](C(C)C)OC(=O)C[C@@H]1O (stereo partly drawn)
4.89 µM (inactive)

Again, but for COc1ccc2c(c1)Oc1cc(O)ccc1[C@H]2c1ccccc1C(=O)NC(C)c1ccccc1 (stereo partly drawn)
20.4 µM (inactive)

Again, but for `COc1ccc(/C(Cl)=C(\C=O)c2ccc(F)cc2)cc1OC`
30.5 µM (inactive)

Again, but for CC1(C)[N+]([O-])=[N+]([O-])C1(C)O (stereo not drawn)
> 100 µM (inactive)

Again, but for `CSc1nc(Cl)c(Br)c(Sc2nc(N)nc3nc[nH]c23)n1`
13.4 µM (inactive)
